meta.source: paper PMC12845078

test: Pharmacokinetics of MT, 6-HMT and CBD in beagles after oral administration; conditions: male, beagle, dog, in vivo, po, 3 mg/kg, t1/2, beagles, p.o., MT + Vehicle 3 mg/kg
reported property: half-life (min)

INSERT INTO results (smiles, number) VALUES
  ('COc1ccc2[nH]cc(CCNC(C)=O)c2c1', 19.8);

###

Assay: Pharmacokinetics of MT, 6-HMT and CBD in SD rats (i.v. and oral)
Details: Sprague-Dawley, rat, plasma, po, 20 mg/kg, Tmax, rats, p.o., MT + CBD (20 + 20) mg/kg
Description: The drugs were dissolved in the same manner as described previously, with an administration volume of 5 mL/kg for all groups. Blood samples were collected at the time points of pre-administration and 0.033 (only for the intravenous administration group), 0.083, 0.25, 0.5, 0.75, 1, 1.5, 2, 4, 6, 8, and 12 h post-administration. The column temperature was set at 40 °C.
reported property: Tmax (h)

INSERT INTO measurements (compound, quantity_unit, number) VALUES
  ('C=C(C)[C@@H]1CCC(C)=C[C@H]1c1c(O)cc(CCCCC)cc1O [CBD, Cannabidiol]', 'h', 1.21);

###

assay: Pharmacokinetics of MT, 6-HMT and CBD in beagles after oral administration; conditions: male, beagle, dog, in vivo, po, 3 mg/kg, AUC(0–t), beagles, p.o., MT + CBD (3 + 3) mg/kg
reported property: AUC(0-t) (ng·h/mL)

INSERT INTO assay_data (smiles, quantity_unit, number) VALUES
  ('COc1ccc2[nH]cc(CCNC(C)=O)c2c1', 'ng·h/mL', 2540);

###

biological target: CYP enzymes mediating MT 6-hydroxylation in human liver microsomes (CYP1A2) (Homo sapiens); construct: tissue XenoTech; assay: Irreversible (mechanism-based) inhibition of CBD on MT 6-hydroxylation, human liver microsomes
Sequence (P05177 whole entry): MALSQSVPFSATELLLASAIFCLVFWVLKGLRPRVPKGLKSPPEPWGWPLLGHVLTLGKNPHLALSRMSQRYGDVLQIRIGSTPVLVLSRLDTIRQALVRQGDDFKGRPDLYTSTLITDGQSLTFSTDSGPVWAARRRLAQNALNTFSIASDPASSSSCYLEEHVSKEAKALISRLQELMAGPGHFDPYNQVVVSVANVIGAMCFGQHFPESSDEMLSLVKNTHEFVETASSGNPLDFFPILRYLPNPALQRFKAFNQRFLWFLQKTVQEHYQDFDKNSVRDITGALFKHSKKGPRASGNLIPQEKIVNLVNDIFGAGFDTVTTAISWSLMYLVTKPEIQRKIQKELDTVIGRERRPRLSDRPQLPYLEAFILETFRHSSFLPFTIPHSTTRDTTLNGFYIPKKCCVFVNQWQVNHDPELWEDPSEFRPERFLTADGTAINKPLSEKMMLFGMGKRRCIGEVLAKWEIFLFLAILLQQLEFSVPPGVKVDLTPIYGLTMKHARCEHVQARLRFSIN
reported property: Ki

INSERT INTO results (smiles, assay_system, result) VALUES
  ('C=C(C)[C@@H]1CCC(C)=C[C@H]1c1c(O)cc(CCCCC)cc1O', 'CYP enzymes mediating MT 6-hydroxylation in human liver microsomes (CYP1A2) (Homo sapiens)', '25.6 µM');

###

test: Pharmacokinetics of MT, 6-HMT and CBD in SD rats (i.v. and oral); settings: male, Sprague-Dawley, rat, plasma, po, 20 mg/kg, MRT(0–t), rats, p.o., MT + CBD (5 + 20) mg/kg
reported property: MRT last

INSERT INTO results (smiles, result) VALUES
  ('C=C(C)[C@@H]1CCC(C)=C[C@H]1c1c(O)cc(CCCCC)cc1O', '3.85 h');

###

assay: Protein binding with hepatic microsomes and plasma proteins across species (summary); format: in vitro ADME; details: beagle (dog), rat, human, liver microsomes and plasma, pH 7.4, both hepatic microsomes and plasma proteins
reported property: fraction unbound at 6 h

INSERT INTO results (molecule, result) VALUES
  ('C=C(C)[C@@H]1CCC(C)=C[C@H]1c1c(O)cc(CCCCC)cc1O [CBD, Cannabidiol]', '< 0.01');

###

Molecular target: CYP enzymes involved in melatonin 6-hydroxylation (Canis lupus familiaris, UniProt P56592)
Sequence (P56592 2-512): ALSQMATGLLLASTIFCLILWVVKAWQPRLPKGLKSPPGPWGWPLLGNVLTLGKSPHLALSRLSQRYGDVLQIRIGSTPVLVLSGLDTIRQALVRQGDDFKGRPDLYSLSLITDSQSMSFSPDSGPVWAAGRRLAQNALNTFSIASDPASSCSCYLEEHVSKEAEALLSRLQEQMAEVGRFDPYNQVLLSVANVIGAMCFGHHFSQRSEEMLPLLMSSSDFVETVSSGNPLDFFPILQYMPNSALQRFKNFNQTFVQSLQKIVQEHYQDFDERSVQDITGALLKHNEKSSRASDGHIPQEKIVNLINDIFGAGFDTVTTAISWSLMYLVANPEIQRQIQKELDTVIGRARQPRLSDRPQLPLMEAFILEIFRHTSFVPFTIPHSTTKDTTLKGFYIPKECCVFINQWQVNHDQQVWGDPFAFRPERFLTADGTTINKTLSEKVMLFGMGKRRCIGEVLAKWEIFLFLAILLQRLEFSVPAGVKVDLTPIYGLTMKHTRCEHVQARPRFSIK
Assay: Competitive inhibition of CBD on MT 6-hydroxylation, beagle liver microsomes
Type: in vitro ADME
Conditions: dog, probe melatonin (MT) 1 μM, 6-hydroxylation to 6-HMT, IC50, inhibition of MT 6-hydroxylation, DLM, MT 1 μM
reported property: IC50 at 30 min (µM)

INSERT INTO results (smiles, quantity_unit, number) VALUES
  ('C=C(C)[C@@H]1CCC(C)=C[C@H]1c1c(O)cc(CCCCC)cc1O', 'µM', 3.42);

###

test: Pharmacokinetics of MT, 6-HMT and CBD in SD rats (i.v. and oral); conditions: Sprague-Dawley, rat, plasma, po, 20 mg/kg, AUC(0–t), rats, p.o., MT + CBD (20 + 20) mg/kg
reported property: AUC(0-t) (µg·h/mL)

INSERT INTO measurements (smiles, number) VALUES
  ('C=C(C)[C@@H]1CCC(C)=C[C@H]1c1c(O)cc(CCCCC)cc1O', 1.39);

###

assay: Pharmacokinetics of MT, 6-HMT and CBD in SD rats (i.v. and oral); settings: male, Sprague-Dawley, rat, in vivo, po, 5 mg/kg, Cmax, rats, p.o., MT + CBD (5 + 5) mg/kg
reported property: Cmax (ng/mL)

INSERT INTO results (smiles, quantity_unit, number) VALUES
  ('COc1ccc2[nH]cc(CCNC(C)=O)c2c1', 'ng/mL', 212);

###

test: Pharmacokinetics of MT, 6-HMT and CBD in SD rats (i.v. and oral); details: male, Sprague-Dawley, rat, in vivo, po, 5 mg/kg, Tmax, rats, p.o., MT + CBD (5 + 20) mg/kg
reported property: Tmax (min)

INSERT INTO assay_data (molecule, number) VALUES
  ('COc1ccc2[nH]cc(CCNC(C)=O)c2c1 [MT, Melatonin]', 8.4);

###

settings: read-out: Km of MT 6-hydroxylation; HLM
reported property: Km (µM)

INSERT INTO measurements (smiles, reported_property, quantity_unit, number) VALUES
  ('COc1ccc2[nH]cc(CCNC(C)=O)c2c1', 'Km', 'µM', 165);

###

Target: CYP enzymes involved in melatonin 6-hydroxylation (Rattus norvegicus)
Sequence (P04799 2-513): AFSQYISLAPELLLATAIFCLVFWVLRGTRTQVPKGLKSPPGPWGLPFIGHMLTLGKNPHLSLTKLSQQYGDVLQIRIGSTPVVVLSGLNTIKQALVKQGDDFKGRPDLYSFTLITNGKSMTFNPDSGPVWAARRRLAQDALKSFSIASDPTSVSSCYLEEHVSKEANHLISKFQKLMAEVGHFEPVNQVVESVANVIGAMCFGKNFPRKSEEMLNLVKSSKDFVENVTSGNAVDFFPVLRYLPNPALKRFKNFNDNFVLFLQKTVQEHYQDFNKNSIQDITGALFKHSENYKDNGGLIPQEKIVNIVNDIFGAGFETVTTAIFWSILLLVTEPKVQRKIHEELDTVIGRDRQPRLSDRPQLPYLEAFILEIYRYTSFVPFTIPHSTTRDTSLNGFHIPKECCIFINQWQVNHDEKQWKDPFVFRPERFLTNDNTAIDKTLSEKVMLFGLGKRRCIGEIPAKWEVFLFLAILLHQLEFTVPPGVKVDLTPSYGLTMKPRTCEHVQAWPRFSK
Test: Competitive inhibition of CBD on MT 6-hydroxylation, rat liver microsomes
Type: in vitro ADME
Settings: probe melatonin (MT) 1 μM, 6-hydroxylation to 6-HMT, IC50, inhibition of MT 6-hydroxylation, RLM, MT 1 μM
reported property: IC50 at 30 min (µM)

INSERT INTO assay_data (smiles, quantity_unit, number) VALUES
  ('C=C(C)[C@@H]1CCC(C)=C[C@H]1c1c(O)cc(CCCCC)cc1O', 'µM', 13.5);

###

assay: Pharmacokinetics of MT, 6-HMT and CBD in SD rats (i.v. and oral); details: male, Sprague-Dawley, rat, plasma, po, 20 mg/kg, AUC(0–∞), rats, p.o., MT + CBD (5 + 20) mg/kg
reported property: AUC(0-inf) (ng·h/mL)

INSERT INTO results (smiles, quantity_unit, number) VALUES
  ('C=C(C)[C@@H]1CCC(C)=C[C@H]1c1c(O)cc(CCCCC)cc1O', 'ng·h/mL', 1610);

###

test: Pharmacokinetics of MT, 6-HMT and CBD in beagles after oral administration; conditions: male, beagle, dog, in vivo, po, 3 mg/kg, Cmax, beagles, p.o., MT + CBD (3 + 3) mg/kg
reported property: Cmax (ng/mL)

INSERT INTO measurements (smiles, reported_property, quantity_unit, number) VALUES
  ('COc1ccc2[nH]cc(CCNC(C)=O)c2c1', 'Cmax', 'ng/mL', 1360);
